# ASSAY_DETAILS: method code SF-AS, from DOI: 10.1016/0048-3575(91)90045-n
OUTCOME_MEASURE: logP
A bare number is all that is needed in reply.

Before answering, review these 6 worked examples.
O=C(NC(=O)c1c(F)cccc1F)Nc1ccccc1C(F)(F)F	1.17
Cc1ccc(NC(=O)NC(=O)c2c(F)cccc2F)c(C)c1	1.46
O=C(NC(=O)c1c(F)cccc1F)Nc1ccccc1F	1.03
O=C(NC(=O)c1c(F)cccc1F)Nc1cc(Cl)c(Cl)c(Cl)c1	3.76
O=C(NC(=O)c1c(F)cccc1F)Nc1cc([N+](=O)[O-])c(Br)cc1F	2.11
Cc1cc(NC(=O)NC(=O)c2c(F)cccc2F)ccc1Cl	2.57

Query block: Please report logP for the following compound: `O=C(NC(=O)c1c(F)cccc1F)Nc1cc(C(F)(F)F)c(Cl)cc1F`
Result block: 3.02

Query block: Please report logP for the following compound: `O=C(NC(=O)c1c(F)cccc1F)Nc1cccc(C(F)(F)F)c1`
Result block: 2.56

Query block: Please report logP for the following compound: `Cc1cc(Br)cc(C)c1NC(=O)NC(=O)c1c(F)cccc1F`
Result block: 2.12

Query block: Please report logP for the following compound: `O=C(NC(=O)c1c(F)cccc1F)Nc1ccc(Cl)c(Cl)c1Cl`
Result block: 2.88

Query block: Please report logP for the following compound: `Cc1c(NC(=O)NC(=O)c2c(F)cccc2F)ccc(Br)c1Cl`
Result block: 2.69

###

# ASSAY_DETAILS: method code SF-AS, from DOI: 10.1016/0048-3575(91)90045-n
Binarize logP at 2; below is 1, at or above is 0.

Would you please look over these solved cases?
O=C(NC(=O)c1c(F)cccc1F)Nc1ccc(Cl)c(C(F)(F)F)c1	0
O=C(NC(=O)c1c(F)cccc1F)Nc1cc(C(F)(F)F)cc(C(F)(F)F)c1Br	0
O=C(NC(=O)c1c(F)cccc1F)Nc1ccc(Cl)cc1F	1

Query block: In the record for `O=C(NC(=O)c1c(F)cccc1F)Nc1cc(Cl)c(Cl)c(Cl)c1Cl` , is logP less than 2?
Result block: 0

###

# ASSAY_DETAILS: method code SF-AS, from DOI: 10.1016/0048-3575(91)90045-n
Here the recorded logP is given for each entry.
A bare number is all that is needed in reply.

Before answering, review these 4 worked examples.
CCCCc1ccc(NC(=O)NC(=O)c2c(F)cccc2F)c([N+](=O)[O-])c1	3.1
O=C(NC(=O)c1c(F)cccc1F)Nc1cc(OC(F)(F)F)c(Br)cc1F	3.24
O=C(NC(=O)c1c(F)cccc1F)Nc1cc(C(F)(F)F)c(Cl)cc1Cl	3.24
Cc1cccc(NC(=O)NC(=O)c2c(F)cccc2F)c1C	1.35

// next entry
Query block: Please report logP for the following compound: `CCc1cc(Br)ccc1NC(=O)NC(=O)c1c(F)cccc1F`
Result block: 2.27

###

# ASSAY_DETAILS: method code SF-AS, from DOI: 10.1016/0048-3575(91)90045-n
Decide using logP: a value greater than or equal to 3 is condition met, a smaller one is condition not met.

Would you please look over these solved cases?
CCc1cc(NC(=O)NC(=O)c2c(F)cccc2F)ccc1Br	condition met
O=C(NC(=O)c1c(F)cccc1F)Nc1c(F)ccc(C(F)(F)F)c1Br	condition not met
Cc1cc(Oc2ncc(C(F)(F)F)cc2Cl)ccc1NC(=O)NC(=O)c1c(F)cccc1F	condition met
O=C(NC(=O)c1c(F)cccc1F)Nc1ccc(Br)c(Cl)c1F	condition not met
O=C(NC(=O)c1c(F)cccc1F)Nc1c(F)cc(Br)cc1F	condition not met

Query block: Reported logP at or above 3? `O=C(NC(=O)c1c(F)cccc1F)Nc1cc(OC(F)(F)F)c(F)cc1F`
Result block: condition not met

Query block: Reported logP at or above 3? `Cc1cc(NC(=O)NC(=O)c2c(F)cccc2F)cc(C)c1Br`
Result block: condition met

Query block: Reported logP at or above 3? `O=C(NC(=O)c1c(F)cccc1F)Nc1cc(Cl)c(Oc2ncc(C(F)(F)F)cc2Cl)c(Cl)c1`
Result block: condition met

Query block: Reported logP at or above 3? `O=C(NC(=O)c1c(F)cccc1F)Nc1cc(Cl)c(F)c(Cl)c1F`
Result block: condition not met

Query block: Reported logP at or above 3? `CC(C)Oc1cc(NC(=O)NC(=O)c2c(F)cccc2F)c(F)cc1Cl`
Result block: condition not met

Query block: Reported logP at or above 3? `O=C(NC(=O)c1c(F)cccc1F)Nc1ccc(Cl)cc1C(F)(F)F`
Result block: condition not met

Query block: Reported logP at or above 3? `CCCCc1ccc(NC(=O)NC(=O)c2c(F)cccc2F)cc1Br`
Result block: condition met

###

Here the recorded logP is given for each entry.
# ASSAY_DETAILS: method code SF-AS, from DOI: 10.1016/0048-3575(91)90045-n

Before answering, review these 2 worked examples.
Cc1cc(Br)ccc1NC(=O)NC(=O)c1c(F)cccc1F	2.03
O=C(NC(=O)c1c(F)cccc1F)Nc1cccc(Cl)c1F	1.83

Query block: Please report logP for the following compound: `Cc1cc(NC(=O)NC(=O)c2c(F)cccc2F)cc(C)c1C`
Result block: 2.5

Query block: Please report logP for the following compound: `CC(C)COc1cc(NC(=O)NC(=O)c2c(F)cccc2F)c(F)cc1Cl`
Result block: 3.79

Query block: Please report logP for the following compound: `O=C(NC(=O)c1c(F)cccc1F)Nc1cc(C(F)(F)F)ccc1F`
Result block: 2.24

Query block: Please report logP for the following compound: `O=C(NC(=O)c1c(F)cccc1F)Nc1ccc(I)cc1`
Result block: 2.46

Query block: Please report logP for the following compound: `Cc1cc(C)cc(NC(=O)NC(=O)c2c(F)cccc2F)c1`
Result block: 2.17
